- SYSTEM_UNDER_TEST: UniProtKB P30556
- Sequence (P30556 1-359): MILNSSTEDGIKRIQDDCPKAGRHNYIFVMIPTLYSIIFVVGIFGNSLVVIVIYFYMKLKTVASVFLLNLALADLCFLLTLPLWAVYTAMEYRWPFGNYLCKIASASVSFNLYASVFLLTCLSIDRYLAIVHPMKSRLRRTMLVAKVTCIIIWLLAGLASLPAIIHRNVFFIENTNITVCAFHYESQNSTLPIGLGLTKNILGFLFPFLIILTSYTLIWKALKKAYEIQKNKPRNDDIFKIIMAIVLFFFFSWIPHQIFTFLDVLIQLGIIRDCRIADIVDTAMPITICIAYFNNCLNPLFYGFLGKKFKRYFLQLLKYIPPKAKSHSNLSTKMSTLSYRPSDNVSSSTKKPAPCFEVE

{"columns": ["CHEMICAL_STRUCTURE", "SYSTEM_UNDER_TEST", "Ki"],
 "data": [
  ["COc1cccc(OC)c1NC(=O)c1ccc(Cc2cc3c(cc2C)C(C)(C)CCC3(C)C)o1", "UniProtKB P30556", "3 to 5 µM"]
]}

----------
Each entry below carries its recorded pIC50.
- SYSTEM_UNDER_TEST: human GnRH receptor (Homo sapiens)
- Construct: expressed in transfected cells; host or cells: HEK 293 (hGnRH-R/293, from Dr. Stuart Sealfon)
- Sequence (P30968 whole entry): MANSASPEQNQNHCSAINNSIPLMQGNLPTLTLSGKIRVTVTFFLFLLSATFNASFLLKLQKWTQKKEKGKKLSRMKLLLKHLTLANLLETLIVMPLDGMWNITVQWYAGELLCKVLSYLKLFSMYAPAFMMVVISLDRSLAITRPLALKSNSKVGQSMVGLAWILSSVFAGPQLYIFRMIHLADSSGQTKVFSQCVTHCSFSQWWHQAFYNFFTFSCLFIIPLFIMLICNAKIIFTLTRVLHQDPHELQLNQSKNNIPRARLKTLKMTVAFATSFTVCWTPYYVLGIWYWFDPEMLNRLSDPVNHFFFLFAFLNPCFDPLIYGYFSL
- MEASUREMENT_NOTES: Radioligand binding, 125I-GnRH-A displacement, membranes of HEK 293 cells with human GnRH receptor
- SETUP_CONDITIONS: read-out: hGnRH IC50
pIC50: −log10 of the molar value.

{"columns": ["COMPOUND", "SYSTEM_UNDER_TEST", "QUALIFIER", "pIC50"],
 "data": [
  ["Cc1cc2c(cc1Cc1ccc(C(=O)NCC3CCCCC3)o1)C(C)(C)CCC2(C)C", "human GnRH receptor (Homo sapiens)", "=", 6.67],
  ["Cc1cc2c(cc1Cc1ccc(C(=O)NCCc3ccccc3Cl)o1)C(C)(C)CCC2(C)C", "human GnRH receptor (Homo sapiens)", "=", 6.24],
  ["Cc1cc2c(cc1Cc1ccc(C(=O)NCc3ccc(CNc4ncccn4)cc3)o1)C(C)(C)CCC2(C)C", "human GnRH receptor (Homo sapiens)", "=", 6.70],
  ["Cc1cc2c(cc1Cc1ccc(C(=O)NCC3CCCC(CNc4nccc(NCC5CCCO5)n4)C3)o1)C(C)(C)CCC2(C)C (stereo not drawn)", "human GnRH receptor (Homo sapiens)", "=", 6.72],
  ["COc1cc(OC)c(Cc2ccc(C(=O)Nc3c(OC)cccc3OC)o2)c(OC)c1", "human GnRH receptor (Homo sapiens)", "=", 6.20],
  ["COc1cc(OC)c(NC(=O)c2ccc(Cc3cc(C(C)=O)c(C)cc3C)o2)c(OC)c1", "human GnRH receptor (Homo sapiens)", "=", 6.24],
  ["Cc1cc2c(cc1Cc1ccc(C(=O)Nc3ccc(S(=O)(=O)Nc4ccc(Cl)nn4)cc3)o1)C(C)(C)CCC2(C)C", "human GnRH receptor (Homo sapiens)", "<", 5.00],
  ["Cc1ccc(C(C)(C)C)cc1Cc1ccc(C(=O)Nc2ccc3[nH]ccc3c2)o1", "human GnRH receptor (Homo sapiens)", "=", 6.70],
  ["COc1ccccc1NC(=O)c1ccc(Cc2cc3c(cc2C)C(C)(C)CCC3(C)C)o1", "human GnRH receptor (Homo sapiens)", "=", 6.41],
  ["COCCCNC(=O)c1ccc(Cc2cc3c(cc2C)C(C)(C)CCC3(C)C)o1", "human GnRH receptor (Homo sapiens)", "=", 6.14],
  ["Cc1cc2c(cc1Cc1ccc(C(=O)NCC3CCCN(C(=O)OC(C)(C)C)C3)o1)C(C)(C)CCC2(C)C (stereo not drawn)", "human GnRH receptor (Homo sapiens)", "=", 6.23],
  ["COc1cc(OC)c(CNC(=O)c2ccc(Cc3cc4c(cc3C)C(C)(C)CCC4(C)C)o2)c(OC)c1", "human GnRH receptor (Homo sapiens)", "=", 5.49],
  ["Cc1cc2c(cc1Cc1ccc(C(=O)NCc3cccc(CNc4nccc(C(F)(F)F)n4)c3)o1)C(C)(C)CCC2(C)C", "human GnRH receptor (Homo sapiens)", "=", 5.73],
  ["COc1cccc(OC)c1NC(=O)c1ccc(Cc2cc3c(cc2C)C(C)(C)CCC3(C)C)s1", "human GnRH receptor (Homo sapiens)", "<", 5.00],
  ["COc1cc(NS(C)(=O)=O)c(NC(=O)c2ccc(Cc3cc4c(cc3C)C(C)(C)CCC4(C)C)o2)c(OC)c1", "human GnRH receptor (Homo sapiens)", "=", 7.57]
]}

----------
Each entry below carries its recorded inhibition at 10 µM.
- SYSTEM_UNDER_TEST: mouse GnRH receptor (Mus musculus, UniProt Q01776)
- Construct: expressed in transfected cells; host or cells: 293 cells
- Sequence (Q01776 1-327): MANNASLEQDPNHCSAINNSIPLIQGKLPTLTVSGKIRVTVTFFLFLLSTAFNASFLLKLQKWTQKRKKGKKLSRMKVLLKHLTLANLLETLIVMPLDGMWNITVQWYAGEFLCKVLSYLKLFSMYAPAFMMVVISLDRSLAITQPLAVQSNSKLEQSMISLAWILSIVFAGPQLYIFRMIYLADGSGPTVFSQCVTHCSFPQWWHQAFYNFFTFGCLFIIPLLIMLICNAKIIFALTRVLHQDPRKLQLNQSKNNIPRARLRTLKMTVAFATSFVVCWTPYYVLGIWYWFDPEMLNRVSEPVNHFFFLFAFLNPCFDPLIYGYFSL
- MEASUREMENT_NOTES: Radioligand binding, 125I-GnRH-A, 293 cells expressing mouse GnRH receptors
- SETUP_CONDITIONS: 10 uM; read-out: % Inhib. @ 10 uM mGnRH
- Description: All compounds were diluted in 1% DMSO (final assay concentration) in binding assay buffer. […] Reactions were terminated by rapid filtration onto 96-well Packard GF/C filters soaked in 0.1% polyethyleneimine. Filters were washed three times with PBS buffer, dried and counted on a Packard Topcount by liquid scintillation counting. […] The reaction mixture was vortexed and incubated for 1 min at room temperature. […] Fractions were assessed for biological activity by radioligand binding.

{"columns": ["COMPOUND", "SYSTEM_UNDER_TEST", "inhibition at 10 µM (%)"],
 "data": [
  ["Cc1cc2c(cc1Cc1ccc(C(=O)N(Cc3cccn3C)C3CCN(Cc4ccccc4)C3)o1)C(C)(C)CCC2(C)C (stereo not shown) [drawing 1562]", "mouse GnRH receptor (Mus musculus, UniProt Q01776)", 98],
  ["Cc1cc2c(cc1Cc1ccc(C(=O)NC3CCS(=O)(=O)C3)o1)C(C)(C)CCC2(C)C (stereo not shown) [drawing 1508]", "mouse GnRH receptor (Mus musculus, UniProt Q01776)", 90],
  ["Cc1cc2c(cc1Cc1ccc(C(=O)N(Cc3cccnc3)Cc3ccccc3F)o1)C(C)(C)CCC2(C)C [drawing 1287]", "mouse GnRH receptor (Mus musculus, UniProt Q01776)", 95],
  ["Cc1cc2c(cc1Cc1ccc(C(=O)NCCc3ccc(F)cc3)o1)C(C)(C)CCC2(C)C [drawing 1574]", "mouse GnRH receptor (Mus musculus, UniProt Q01776)", 79],
  ["Cc1cc2c(cc1Cc1ccc(C(=O)N3CCN(c4cccc(C)c4C)CC3)o1)C(C)(C)CCC2(C)C [drawing 1468]", "mouse GnRH receptor (Mus musculus, UniProt Q01776)", 58],
  ["Cc1cc2c(cc1Cc1ccc(C(=O)NCCCCCCN(C)C)o1)C(C)(C)CCC2(C)C [drawing 1519]", "mouse GnRH receptor (Mus musculus, UniProt Q01776)", 106],
  ["Cc1cc2c(cc1Cc1ccc(C(=O)NC[C@@H](C)c3ccccc3)o1)C(C)(C)CCC2(C)C", "mouse GnRH receptor (Mus musculus, UniProt Q01776)", 70],
  ["Cc1cc2c(cc1Cc1ccc(C(=O)N[C@H](C)c3ccccc3)o1)C(C)(C)CCC2(C)C", "mouse GnRH receptor (Mus musculus, UniProt Q01776)", 72],
  ["CCCNC(=O)c1ccc(Cc2cc3c(cc2C)C(C)(C)CCC3(C)C)o1 [drawing 1274]", "mouse GnRH receptor (Mus musculus, UniProt Q01776)", 93],
  ["CNC(=O)c1ccc(Cc2cc3c(cc2C)C(C)(C)CCC3(C)C)o1 [drawing 1539]", "mouse GnRH receptor (Mus musculus, UniProt Q01776)", 23],
  ["Cc1cc2c(cc1Cc1ccc(C(=O)N(Cc3cccnc3)Cc3ccco3)o1)C(C)(C)CCC2(C)C [drawing 1535]", "mouse GnRH receptor (Mus musculus, UniProt Q01776)", 89],
  ["Cc1cc2c(cc1Cc1ccc(C(=O)NCc3cccc(NC(=O)NC(Cc4ccccc4)c4ccccc4)c3)o1)C(C)(C)CCC2(C)C (stereo not shown) [drawing 1570]", "mouse GnRH receptor (Mus musculus, UniProt Q01776)", 42],
  ["CCOC(=O)CN(Cc1ccccc1)C(=O)c1ccc(Cc2cc3c(cc2C)C(C)(C)CCC3(C)C)o1 [drawing 1494]", "mouse GnRH receptor (Mus musculus, UniProt Q01776)", 62],
  ["Cc1cc2c(cc1Cc1ccc(C(=O)N(CCC(c3ccccc3)c3ccccc3)Cc3ccccn3)o1)C(C)(C)CCC2(C)C [drawing 1554]", "mouse GnRH receptor (Mus musculus, UniProt Q01776)", 50],
  ["Cc1cc2c(cc1Cc1ccc(C(=O)N(CCC(c3ccccc3)c3ccccc3)Cc3ccco3)o1)C(C)(C)CCC2(C)C [drawing 1552]", "mouse GnRH receptor (Mus musculus, UniProt Q01776)", 43],
  ["Cc1cc2c(cc1Cc1ccc(C(=O)N3CCC(C#N)(c4ccccc4)CC3)o1)C(C)(C)CCC2(C)C", "mouse GnRH receptor (Mus musculus, UniProt Q01776)", 40],
  ["Cc1cc2c(cc1Cc1ccc(C(=O)N(CCCN3CCN(C)CC3)Cc3ccc(F)cc3)o1)C(C)(C)CCC2(C)C [drawing 1490]", "mouse GnRH receptor (Mus musculus, UniProt Q01776)", 103],
  ["Cc1cc2c(cc1Cc1ccc(C(=O)NCC3(O)CCCCC3)o1)C(C)(C)CCC2(C)C [drawing 1445]", "mouse GnRH receptor (Mus musculus, UniProt Q01776)", 65],
  ["CCCN(C(=O)c1ccc(Cc2cc3c(cc2C)C(C)(C)CCC3(C)C)o1)C(C)CC (stereo not shown)", "mouse GnRH receptor (Mus musculus, UniProt Q01776)", 94],
  ["CCN1CC(N(Cc2ccc(N(C)C)cc2)C(=O)c2ccc(Cc3cc4c(cc3C)C(C)(C)CCC4(C)C)o2)CN1CC [drawing 1566]", "mouse GnRH receptor (Mus musculus, UniProt Q01776)", 95],
  ["CCOC(=O)CC(C)(NC(N)=O)NC(=O)c1ccc(Cc2cc3c(cc2C)C(C)(C)CCC3(C)C)o1 (stereo not shown)", "mouse GnRH receptor (Mus musculus, UniProt Q01776)", 25],
  ["CSCCC(CO)NC(=O)c1ccc(Cc2cc3c(cc2C)C(C)(C)CCC3(C)C)o1 (stereo not shown) [drawing 1580]", "mouse GnRH receptor (Mus musculus, UniProt Q01776)", 105],
  ["Cc1cc2c(cc1Cc1ccc(C(=O)N(CCC#N)Cc3ccco3)o1)C(C)(C)CCC2(C)C [drawing 1309]", "mouse GnRH receptor (Mus musculus, UniProt Q01776)", 77],
  ["Cc1cc2c(cc1Cc1ccc(C(=O)N3CCN(CCN4CCOCC4)CC3)o1)C(C)(C)CCC2(C)C", "mouse GnRH receptor (Mus musculus, UniProt Q01776)", 73],
  ["Cc1cc2c(cc1Cc1ccc(C(=O)N3CCC(C(=O)c4ccc(F)cc4)CC3)o1)C(C)(C)CCC2(C)C [drawing 1467]", "mouse GnRH receptor (Mus musculus, UniProt Q01776)", 63],
  ["CCOC(=O)CN1CCN(C(=O)c2ccc(Cc3cc4c(cc3C)C(C)(C)CCC4(C)C)o2)CC1", "mouse GnRH receptor (Mus musculus, UniProt Q01776)", 66],
  ["C=CCN1CCN(C(=O)c2ccc(Cc3cc4c(cc3C)C(C)(C)CCC4(C)C)o2)CC1", "mouse GnRH receptor (Mus musculus, UniProt Q01776)", 95],
  ["Cc1cc2c(cc1Cc1ccc(C(=O)NCc3ccc(F)cc3)o1)C(C)(C)CCC2(C)C [drawing 1482]", "mouse GnRH receptor (Mus musculus, UniProt Q01776)", 97],
  ["Cc1cc2c(cc1Cc1ccc(C(=O)N(Cc3cccnc3)CC3CC=CCC3)o1)C(C)(C)CCC2(C)C (stereo not shown) [drawing 1318]", "mouse GnRH receptor (Mus musculus, UniProt Q01776)", 94],
  ["Cc1cc2c(cc1Cc1ccc(C(=O)N3CCC[C@@H]3C(=O)NC(c3ccccc3)c3ccccc3)o1)C(C)(C)CCC2(C)C", "mouse GnRH receptor (Mus musculus, UniProt Q01776)", 58],
  ["CCN1CC(N(Cc2ccccc2C#N)C(=O)c2ccc(Cc3cc4c(cc3C)C(C)(C)CCC4(C)C)o2)CN1CC [drawing 1565]", "mouse GnRH receptor (Mus musculus, UniProt Q01776)", 101]
]}
